pIC50: −log10 of the molar value.
Heads up, these molecules all have pIC50 values measured for UniProt:Q6Q793.
readoutLabel: pIC50

>>> reportedresult("CCOP(=O)(O)C1=C[C@@H](OC(CC)CC)[C@H](NC(C)=O)[C@@H](N)C1 [TAMIPHOSPHOR MONOETHYL ESTER]")
8.66
>>> reportedresult("CCC(CC)O[C@@H]1C=C(P(=O)(O)O)C[C@H](NC(=N)N)[C@H]1NC(C)=O")
10.40
